biological target: M1 muscarinic receptor (Homo sapiens, UniProt P11229); construct: expressed in transfected cells; host or cells: CHO (M1-CHO); experiment: Functional mobilization of intracellular calcium (FLIPR), M1-CHO cells; format: cell-based; conditions: 100% efficacy = maximum response obtained with the Carbachol control
Sequence (P11229 whole entry): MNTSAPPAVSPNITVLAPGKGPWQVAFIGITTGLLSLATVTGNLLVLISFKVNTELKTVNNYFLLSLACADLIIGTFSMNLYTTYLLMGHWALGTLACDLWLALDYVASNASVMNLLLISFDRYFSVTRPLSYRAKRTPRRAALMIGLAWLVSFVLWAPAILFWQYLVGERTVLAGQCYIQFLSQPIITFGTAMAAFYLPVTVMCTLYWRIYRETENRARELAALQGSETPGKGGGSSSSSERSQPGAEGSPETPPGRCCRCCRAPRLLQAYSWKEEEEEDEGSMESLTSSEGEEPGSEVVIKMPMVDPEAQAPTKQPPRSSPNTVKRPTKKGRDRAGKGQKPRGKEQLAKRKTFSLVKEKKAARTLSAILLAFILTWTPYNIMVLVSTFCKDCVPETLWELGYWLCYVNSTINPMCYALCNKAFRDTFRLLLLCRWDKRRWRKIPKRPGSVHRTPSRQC
Collected Emax values appear next to each entry.
property: Emax

{"compound": "COc1ccc(C#CC2(O)CCCC2)cc1C1CCN([C@H]2C[C@H]3CC[C@H]2C3)CC1", "system-tested": "M1 muscarinic receptor (Homo sapiens, UniProt P11229)", "recorded-value": "< 25%"}
{"compound": "COc1ccc(-c2ccc3c(c2)OCO3)cc1C1CCN(C2CCOCC2)CC1", "system-tested": "M1 muscarinic receptor (Homo sapiens, UniProt P11229)", "recorded-value": "< 25%"}
{"compound": "Oc1ccccc1C1CCN(C2CC3CC[C@H]2C3)CC1 (stereo in doubt)", "system-tested": "M1 muscarinic receptor (Homo sapiens, UniProt P11229)", "recorded-value": "25 to 100%"}
{"compound": "COCCNC(=O)c1ccc(-c2ccc(OC)c(C3CCN([C@H]4C[C@H]5CC[C@H]4C5)CC3)c2)cc1", "system-tested": "M1 muscarinic receptor (Homo sapiens, UniProt P11229)", "recorded-value": "< 25%"}
{"compound": "CCOC(=O)N1C2CCC1CC(N1CCC(c3cc(OC)cc(F)c3F)CC1)C2 (centres unmarked)", "system-tested": "M1 muscarinic receptor (Homo sapiens, UniProt P11229)", "recorded-value": "25 to 100%"}
{"compound": "CNC(=O)c1ccc(-c2ccc(OC)c(C3CCN(C4CCCCC4)CC3)c2)cc1", "system-tested": "M1 muscarinic receptor (Homo sapiens, UniProt P11229)", "recorded-value": "< 25%"}
{"compound": "c1ccc(C2CCN([C@H]3C[C@H]4CC[C@H]3C4)CC2)c(OCC2CCCCO2)c1 (some centres unmarked)", "system-tested": "M1 muscarinic receptor (Homo sapiens, UniProt P11229)", "recorded-value": "25 to 100%"}
{"compound": "COc1c(F)cc(F)cc1C1CCN(C2CCOCC2)CC1", "system-tested": "M1 muscarinic receptor (Homo sapiens, UniProt P11229)", "recorded-value": "< 25%"}

----------
Collected Emax values appear next to each entry.
target: M4 muscarinic receptor (Homo sapiens); construct: expressed in transfected cells; host or cells: CHO (M4-CHO); experiment: Functional mobilization of intracellular calcium (FLIPR), M4-CHO cells; type: cell-based; settings: 100% efficacy = maximum response obtained with the Carbachol control
property: Emax

{"molecule": "COc1ccc(NC(C)=O)cc1C1CCN(C2C[C@H]3CC[C@H](C2)C3)CC1 (stereo partly shown) [Compound 75]", "property": "Emax", "recorded-value": "25 to 100%"}
{"molecule": "COc1ccc(-c2ccc(C(=O)N3CCCC3)cc2)cc1C1CCN([C@H]2C[C@H]3CC[C@H]2C3)CC1 [Compound 17]", "property": "Emax", "recorded-value": "25 to 100%"}
{"molecule": "COc1ccc(-c2ccncc2)cc1C1CCN([C@@H]2C[C@@H]3CC[C@H]2C3)CC1 [Compound 124]", "property": "Emax", "recorded-value": "< 25%"}
{"molecule": "COc1ccc(-c2ccc(S(C)(=O)=O)cc2)cc1C1CCN(C2CCCCC2)CC1 [Compound 268]", "property": "Emax", "recorded-value": "25 to 100%"}

----------
Biological target: M4 muscarinic receptor (Homo sapiens)
Construct: expressed in transfected cells; host or cells: CHO (M4-CHO)
Sequence (P08173 1-479): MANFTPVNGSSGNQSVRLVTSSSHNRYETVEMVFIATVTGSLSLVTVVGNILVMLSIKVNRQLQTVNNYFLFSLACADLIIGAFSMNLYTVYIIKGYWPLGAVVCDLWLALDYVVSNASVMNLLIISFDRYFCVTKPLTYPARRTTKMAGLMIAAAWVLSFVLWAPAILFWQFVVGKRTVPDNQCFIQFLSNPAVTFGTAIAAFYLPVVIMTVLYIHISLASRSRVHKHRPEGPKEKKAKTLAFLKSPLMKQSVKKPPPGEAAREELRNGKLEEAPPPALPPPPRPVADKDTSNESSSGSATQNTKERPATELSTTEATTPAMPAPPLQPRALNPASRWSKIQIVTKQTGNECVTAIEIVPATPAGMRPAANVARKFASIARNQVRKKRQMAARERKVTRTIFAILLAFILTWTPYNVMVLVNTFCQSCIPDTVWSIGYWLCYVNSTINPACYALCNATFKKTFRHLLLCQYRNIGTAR
Test: Functional mobilization of intracellular calcium (FLIPR), M4-CHO cells
Type: cell-based
Settings: 100% efficacy = maximum response obtained with the Carbachol control
Collected Emax values appear next to each entry.

{"compound": "COc1ccccc1C1CCN(C2CCOCC2)CC1 [Compound 90]", "system-tested": "M4 muscarinic receptor (Homo sapiens)", "Emax": "25 to 100%"}
{"compound": "COc1ccccc1-c1ccc(OC)c(C2CCN([C@H]3C[C@H]4CC[C@H]3C4)CC2)c1 [Compound 13]", "system-tested": "M4 muscarinic receptor (Homo sapiens)", "Emax": "< 25%"}
{"compound": "COc1ccc(OC)c(C2CCN(CC3C[C@H]4CC[C@H]3C4)CC2)c1 (stereo partly drawn) [Compound 344]", "system-tested": "M4 muscarinic receptor (Homo sapiens)", "Emax": "25 to 100%"}
{"compound": "COc1ccccc1C1(C#N)CCN(C2CC3CCC2C3)CC1 (stereo not drawn) [Compound 136]", "system-tested": "M4 muscarinic receptor (Homo sapiens)", "Emax": "25 to 100%"}
{"compound": "COc1ccc(-c2ccc(C(C)(C)C#N)cc2)cc1C1CCN(C2CCCCC2)CC1 [Compound 105]", "system-tested": "M4 muscarinic receptor (Homo sapiens)", "Emax": "25 to 100%"}
{"compound": "COc1ccc(-c2ccc(S(=O)(=O)N3CCCC3)cc2)cc1C1CCN(C2CCCCC2)CC1 [Compound 332]", "system-tested": "M4 muscarinic receptor (Homo sapiens)", "Emax": "25 to 100%"}

----------
Collected Emax values appear next to each entry.
molecular target: M4 muscarinic receptor (Homo sapiens); construct: expressed in transfected cells; host or cells: CHO (M4-CHO); experiment: Functional mobilization of intracellular calcium (FLIPR), M4-CHO cells; format: cell-based; details: 100% efficacy = maximum response obtained with the Carbachol control

{"compound": "COc1ccccc1C1CCN(C2CC3CC(C)CC(C3)C2)CC1 (stereo not shown) [Compound 112]", "system-tested": "M4 muscarinic receptor (Homo sapiens)", "Emax": "25 to 100%"}
{"compound": "Fc1cccc(-c2ccccc2C2CCN([C@H]3C[C@H]4CC[C@H]3C4)CC2)c1 [Compound 274]", "system-tested": "M4 muscarinic receptor (Homo sapiens)", "Emax": "25 to 100%"}
{"compound": "COc1c(F)cc(F)cc1C1CCN([C@@H]2C[C@H]3CC[C@H]2C3)CC1 [Compound 103]", "system-tested": "M4 muscarinic receptor (Homo sapiens)", "Emax": "< 25%"}
{"compound": "FC(F)(F)c1ccccc1C1CCN(C2C[C@H]3CC[C@H]2C3)CC1 (stereo partly shown) [Compound 32]", "system-tested": "M4 muscarinic receptor (Homo sapiens)", "Emax": "25 to 100%"}

----------
molecular target: M1 muscarinic receptor (Homo sapiens, UniProt P11229); construct: expressed in transfected cells; host or cells: CHO (M1-CHO); experiment: Functional mobilization of intracellular calcium (FLIPR), M1-CHO cells; type: cell-based; conditions: 100% efficacy = maximum response obtained with the Carbachol control

{"compound": "COc1ccccc1C1CCN(C2CCC[C@@H](C)C2)CC1 (stereo partly drawn) [Compound 38]", "system-tested": "M1 muscarinic receptor (Homo sapiens, UniProt P11229)", "Emax": "< 25%"}
{"compound": "COc1ccc(F)cc1C1(F)CCN(C2CC3CCC(C3)C2)CC1 (stereo not drawn) [Compound 40]", "system-tested": "M1 muscarinic receptor (Homo sapiens, UniProt P11229)", "Emax": "25 to 100%"}
{"compound": "COc1cc(F)ccc1C1CCN(C2CCOCC2)CC1 [Compound 349]", "system-tested": "M1 muscarinic receptor (Homo sapiens, UniProt P11229)", "Emax": "25 to 100%"}
{"compound": "COc1ccccc1C1CC2CCC(C1)N2C1CCCCC1 (stereo not drawn) [Compound 132]", "system-tested": "M1 muscarinic receptor (Homo sapiens, UniProt P11229)", "Emax": "< 25%"}
{"compound": "COc1ccc(F)cc1C1(OC)CCN(CC2CCOCC2)CC1 [Compound 150]", "system-tested": "M1 muscarinic receptor (Homo sapiens, UniProt P11229)", "Emax": "25 to 100%"}
{"compound": "c1cc2c(c(C3CCN(C4C[C@@H]5CC[C@@H]4C5)CC3)c1)OCO2 (stereo partly drawn) [Compound 236]", "system-tested": "M1 muscarinic receptor (Homo sapiens, UniProt P11229)", "Emax": "25 to 100%"}
{"compound": "COc1ccc(-c2ccc(C#N)cc2)cc1C1CCN(C2CCCCC2)CC1 [Compound 342]", "system-tested": "M1 muscarinic receptor (Homo sapiens, UniProt P11229)", "Emax": "25 to 100%"}
{"compound": "CCOC(=O)N1CCC(N2CCC(C#N)(c3ccccc3OC)CC2)CC1 [Compound 245]", "system-tested": "M1 muscarinic receptor (Homo sapiens, UniProt P11229)", "Emax": "25 to 100%"}
{"compound": "COc1ccc(Cl)cc1C1CCN(C2CCC(=O)CC2)CC1 [Compound 273]", "system-tested": "M1 muscarinic receptor (Homo sapiens, UniProt P11229)", "Emax": "25 to 100%"}
{"compound": "CCCC1CCC(N2CCC(O)(c3cc(Cl)ccc3OC)CC2)CC1 (stereo not drawn) [Compound 164]", "system-tested": "M1 muscarinic receptor (Homo sapiens, UniProt P11229)", "Emax": "< 25%"}
{"compound": "Cc1ccc(C(F)(F)F)cc1C1CCN(C2CCOCC2)CC1 [Compound 358]", "system-tested": "M1 muscarinic receptor (Homo sapiens, UniProt P11229)", "Emax": "25 to 100%"}
{"compound": "O=C(COc1ccccc1C1CCN([C@H]2C[C@H]3CC[C@H]2C3)CC1)c1ccccc1Cl [Compound 170]", "system-tested": "M1 muscarinic receptor (Homo sapiens, UniProt P11229)", "Emax": "< 25%"}
{"compound": "COc1ccc(F)cc1C1(F)CCN(C2CCC3CCC2C3)CC1 (stereo not drawn) [Compound 242]", "system-tested": "M1 muscarinic receptor (Homo sapiens, UniProt P11229)", "Emax": "25 to 100%"}
{"compound": "Cc1ccc(F)c(C2CCN(C3C[C@H]4CC[C@H]3C4)CC2)c1 (stereo partly drawn) [Compound 290]", "system-tested": "M1 muscarinic receptor (Homo sapiens, UniProt P11229)", "Emax": "25 to 100%"}
{"compound": "O=C(COc1ccccc1C1CCN([C@H]2C[C@H]3CC[C@H]2C3)CC1)c1ccc(N2CCCC2)cc1 [Compound 127]", "system-tested": "M1 muscarinic receptor (Homo sapiens, UniProt P11229)", "Emax": "25 to 100%"}
